test system: S. hominis B10 C-S β lyase; assay: Transformation of Cys-3M3SH to 3M3SH by purified S. hominis B10 C-S β lyase; format: biochemical, Staphylococcus hominis; conditions: material concentration = 20 millimolar; 2 mM Cys-3M3SH; 35° C. for 24 hours; relative to control without compound
Measurement label: % inhibition (%)
Give bare numbers, in %.

See these solved cases before continuing.
Compound	Observed result
O=C(O)C1CSC(c2ccccc2O)N1 (stereo not drawn)	100
N[C@H](COCc1ccccc1)C(=O)O [C1, O-benzyl-D-serine, reference compound]	8.2
O=C(O)C1CSC2(CCC3(CC2)OCCO3)N1 (stereo not drawn)	80.6
O=C(O)C1CSC(c2ccccc2)N1 (stereo not drawn)	95.9
COc1ccc(C2NC(C(=O)O)CS2)cc1 (stereo not drawn)	88.2

Working through the 5 compounds below one at a time, give % inhibition for each.
1. O=C(O)C1CSC2(CCCCC2)N1 (stereo not drawn)
2. COc1cc(C2NC(C(=O)O)CS2)ccc1O (stereo not drawn)
3. CCCCCCC1NC(C(=O)O)CS1 (stereo not drawn)
4. CCC(CC)C1NC(C(=O)O)CS1 (stereo not drawn)
5. O=C(O)C1CSC2(CCN(Cc3ccccc3)CC2)N1 (stereo not drawn)

*A*
[100, 100, 100, 94.1, 87.8]

Working through the 2 compounds below one at a time, give % inhibition for each.
1. C=CCOc1ccc(C2NC(C(=O)O)CS2)cc1 (stereo not drawn)
2. COc1ccc(C2NC(C(=O)O)CS2)cc1O (stereo not drawn)

*A*
1: 100; 2: 100

* * *

system: S. hominis B10 C-S β lyase; assay: Transformation of Cys-3M3SH to 3M3SH by purified S. hominis B10 C-S β lyase; type: biochemical, Staphylococcus hominis; details: material concentration = 2 millimolar; 2 mM Cys-3M3SH; 35° C. for 24 hours; relative to control without compound
Consider the following compounds; for each one, report its % inhibition.
Numbers only, in %.

See these solved cases before continuing.
Compound	Observed result
CCCCCCC1NC(C(=O)O)CS1 (stereo not drawn)	87.5
N[C@H](COCc1ccccc1)C(=O)O [C1, O-benzyl-D-serine, reference compound]	0
COc1ccc(C2NC(C(=O)O)CS2)cc1 (stereo not drawn)	24.5
C=CCOc1ccc(C2NC(C(=O)O)CS2)cc1 (stereo not drawn)	39.7
O=C(O)C1CSC(c2ccccc2O)N1 (stereo not drawn)	46.5
CCC(CC)C1NC(C(=O)O)CS1 (stereo not drawn)	46
O=C(O)C1CSC2(CCN(Cc3ccccc3)CC2)N1 (stereo not drawn)	11.9
O=C(O)C1CSC2(CCC3(CC2)OCCO3)N1 (stereo not drawn)	32.3

Working through the 4 compounds below one at a time, give % inhibition for each.
1. COc1ccc(C2NC(C(=O)O)CS2)cc1O (stereo not drawn)
2. O=C(O)C1CSC(c2ccccc2)N1 (stereo not drawn)
3. COc1cc(C2NC(C(=O)O)CS2)ccc1O (stereo not drawn)
4. O=C(O)C1CSC2(CCCCC2)N1 (stereo not drawn)

*A*
1. 34.9
2. 12.3
3. 32.9
4. 90.9
